Ref: PubChem BioAssay AID485364

target: Schistosoma mansoni thioredoxin glutathione reductase (TGR); assay: qHTS Assay for the Inhibitors of Schistosoma Mansoni Peroxiredoxins; settings: purified TGR, DTNB reduction, TNB absorbance 405 nm; series mostly up to 114 µM; further: nearly all actives have a fitted effect of over 60% in size
The whole screen tested about 360,000 compounds, of which about 11,000 (3.1%) were called active. Inconclusive results (about 4%) are left out. The call rests on the fitted dose curve; in most records, active means well fitted inhibition curve with a large enough effect; inconclusive means small, poorly fitted or top-dose-only effect; inactive means no such curve, though single readings can be large or run the other way. Many of the other results were omitted from the sample, so actives are more common in it than they were.
Select the matching outcome among active, inactive

Some entries whose results are on file:
INSERT INTO assay_data (compound, group) VALUES
  ('O=C(/C=C/c1ccco1)Nc1cccc(-c2nc3ccccc3[nH]2)c1', 'active'),
  ('O=C(NCc1ccco1)c1ccc(Cn2c(=O)c3sccc3n(Cc3ccc(F)cc3)c2=O)cc1', 'inactive'),
  ('CCCC(NC(=O)c1ccco1)c1nc2ccccc2[nH]1 (stereo unspecified)', 'inactive'),
  ('CC/C(O)=N\S(=O)(=O)c1ccc(N=NN(C)C)cc1', 'inactive'),
  ('CN(C)N=Nc1ccc2nc[nH]c2c1', 'active');

Answer briefly: the call reported for "O=C(Nc1cccc(-c2nc3ccccc3o2)c1)c1cccc(Br)c1" in this assay.
inactive

Answer briefly: the call reported for "Cc1oc(-c2ccccc2F)nc1CN1CCC(C(=O)NCCc2ccc(Cl)cc2)CC1" in this assay.
inactive

Answer briefly: the call reported for "COc1ccc(OC)c(-c2nc(C(N)=O)c3c(n2)n(-c2ccc4c(c2)OCO4)c(=O)n3C)c1" in this assay.
inactive

Answer briefly: the call reported for "CCOc1ccc(N2C(=O)CSC2=NC#N)cc1" in this assay.
inactive

Answer briefly: the call reported for CCCn1c(=N)n(CC(O)COc2ccccc2OC)c2ccccc21 (stereo unspecified) in this assay.
inactive

Answer briefly: the call reported for "CC(C)OCCCNC(=O)CNC(=O)c1cccs1" in this assay.
inactive

###

molecular target: Schistosoma mansoni thioredoxin glutathione reductase (TGR) (UniProt Q962Y6); assay: qHTS Assay for the Inhibitors of Schistosoma Mansoni Peroxiredoxins; conditions: purified TGR, DTNB reduction, TNB absorbance 405 nm; series mostly up to 114 µM; further: nearly all actives have a fitted effect of over 60% in size
The campaign covered roughly 360,000 compounds. About 11,000 (3.1%) were called active. About 4% were inconclusive and are not listed. Calls come from the whole dose curve; as a rule, active = well fitted inhibition curve with a large enough effect; inconclusive = small, poorly fitted or top-dose-only effect; inactive = no such curve, though single readings can be large or run the other way. The list comes from a sample in which actives are over-represented; it also holds close analogues and randomly drawn compounds.
Select the matching outcome among active, inactive

INSERT INTO measurements (compound, targetundertest, group) VALUES
  ('O=C(NCc1ccc2c(c1)CCN2C(=O)c1ccccc1)Nc1cc(F)ccc1F', 'Schistosoma mansoni thioredoxin glutathione reductase (TGR) (UniProt Q962Y6)', 'inactive');

Answer briefly: the call reported for "CCc1ccccc1NC(=O)N1CCC2(CC1)Oc1ccccc1C(=O)N2Cc1ccccc1F" in this assay.
inactive

Answer briefly: the call reported for "Cc1ccc(NC(=O)CSc2nnc3[nH]c(=O)cc(C)n23)cc1Cl" in this assay.
inactive

Answer briefly: the call reported for "CCCn1c2ccccc2c2cnn(CC(=O)N(CC)c3cc(C)ccc3C)c(=O)c21" in this assay.
inactive

Answer briefly: the call reported for "CCOc1ccc(S(=O)(=O)N(CC(=O)NCCSCc2ccc(C)cc2)c2ccccc2)cc1" in this assay.
inactive

Answer briefly: the call reported for "CCc1ccc(CN(C)C(=O)CCc2nnc(-c3ccc(-c4ccccc4)cc3)o2)nc1" in this assay.
active

Answer briefly: the call reported for "O=C(CCCOc1ccccc1)NCc1ccco1" in this assay.
inactive

Answer briefly: the call reported for "COc1ccc(OCCCn2cccc2/C=C2/C(=N)N3OC(C)=CC3=NC2=O)cc1" in this assay.
inactive

###

target: Schistosoma mansoni thioredoxin glutathione reductase (TGR); assay: qHTS Assay for the Inhibitors of Schistosoma Mansoni Peroxiredoxins; details: purified TGR, DTNB reduction, TNB absorbance 405 nm; series mostly up to 114 µM; further: nearly all actives have a fitted effect of over 60% in size
Hit rate of the full screen: of about 360,000 compounds, about 11,000 (3.1%) were called active. Not shown: some 4% with an inconclusive outcome. Calls follow the shape of the dose curve; as a rule, active = well fitted inhibition curve with a large enough effect; inconclusive = small, poorly fitted or top-dose-only effect; inactive = no such curve, though single readings can be large or run the other way. The full list was thinned out, with actives kept by preference.
Select the matching outcome among active, inactive

INSERT INTO assay_data (molecule, targetundertest, group) VALUES
  ('Cc1ccc(-c2nc(CS(=O)CC(=O)N3CCN(c4ncccn4)CC3)c(C)o2)cc1 (stereo not given)', 'Schistosoma mansoni thioredoxin glutathione reductase (TGR)', 'active'),
  ('CCOc1ccc(NC(=O)CCc2c(C)nn(-c3ccc(N4CCCC4)nn3)c2C)cc1', 'Schistosoma mansoni thioredoxin glutathione reductase (TGR)', 'inactive'),
  ('COc1ccc(CCNC(=O)C(=O)NCc2ccccc2C)cc1OC', 'Schistosoma mansoni thioredoxin glutathione reductase (TGR)', 'inactive'),
  ('CC(OC(=O)c1ccc2ccccc2n1)C(=O)c1ccccc1 (stereo not given)', 'Schistosoma mansoni thioredoxin glutathione reductase (TGR)', 'inactive');

Let us examine a further case.
Answer briefly: the call reported for "COc1ccc(-c2nc(CN3CCN(c4ncccn4)CC3)c(C)o2)cc1C" in this assay.
inactive

###

target: Schistosoma mansoni thioredoxin glutathione reductase (TGR) (UniProt Q962Y6); assay: qHTS Assay for the Inhibitors of Schistosoma Mansoni Peroxiredoxins; conditions: purified TGR, DTNB reduction, TNB absorbance 405 nm; series mostly up to 114 µM; further: nearly all actives have a fitted effect of over 60% in size
Among all 360,000 compounds or so, about 11,000 (3.1%) were called active. Not shown: some 4% with an inconclusive outcome. The call rests on the fitted dose curve; in most records, active means well fitted inhibition curve with a large enough effect; inconclusive means small, poorly fitted or top-dose-only effect; inactive means no such curve, though single readings can be large or run the other way. The sample as a whole holds a higher share of actives than the screen did.
Select the matching outcome among active, inactive

Some entries whose results are on file:
INSERT INTO assay_data (molecule, group) VALUES
  ('CC(=O)c1cccc(NC(=O)c2nc(-c3ccccc3)n(-c3cccc(C)c3)n2)c1', 'inactive'),
  ('COc1ccccc1N1CCN(c2ncnc3onc(-c4cccc(Cl)c4)c23)CC1', 'inactive'),
  ('Cc1ccccc1NC(=O)c1c(NC(=O)c2ccccc2F)sc2c1CCC(C)C2 (configuration not stated)', 'inactive'),
  ('CC1CCN(C(=O)COC(=O)CCC(=O)c2cccs2)CC1', 'inactive');

Answer briefly: the call reported for "O=C(O)c1cc(Cl)c(Cl)cc1C(=O)Nc1cccc2ncccc12" in this assay.
inactive

Answer briefly: the call reported for "Cc1ccc(CNC(=O)c2c(O)nc3c(C)cccn3c2=O)cc1" in this assay.
inactive

Answer briefly: the call reported for "COc1cc(Cl)c(C)cc1NC(=O)CSc1nnc(-c2ccco2)n1CC(C)C" in this assay.
active

Answer briefly: the call reported for "CCc1cc2c(cc(C(=O)OC)n2Cc2nc(-c3ccc(C)cc3)oc2C)s1" in this assay.
inactive

Answer briefly: the call reported for "CCOC(=O)c1ccc(-c2ccc(/C=C(\C#N)C(=O)Nc3ccc(OCC)cc3)o2)cc1" in this assay.
inactive

Answer briefly: the call reported for "O=C(COC(=O)CCC(=O)c1cccs1)NCc1ccco1" in this assay.
active

Answer briefly: the call reported for "CC(=O)N1CCCc2cc(S(=O)(=O)N3CCC(C(=O)NCc4ccc(C)cc4)CC3)ccc21" in this assay.
inactive

Answer briefly: the call reported for CC(=O)Oc1cccc(N2C(=O)CC(Nc3ccc(N4CCOCC4)cc3)C2=O)c1 (configuration not stated) in this assay.
active

Answer briefly: the call reported for "O=C(Nc1ccc(N2CCOCC2)cc1)c1ccc2c(c1)OCO2" in this assay.
inactive

Answer briefly: the call reported for "CCn1c(SCC(=O)Nc2cc(C)ccc2C)nnc1-c1cnccn1" in this assay.
inactive

Answer briefly: the call reported for "CCc1ccc(NC(=O)CSc2nnc(-c3cnccn3)n2Cc2ccco2)cc1" in this assay.
active

Answer briefly: the call reported for "COc1ccc(-c2cc(C(F)(F)F)n3nc(-c4ccccc4)cc3n2)cc1OC" in this assay.
inactive

Answer briefly: the call reported for "Cc1ccc(Cl)cc1NC(=O)Cc1ccc(-n2c(C)nc3cccnc32)cc1" in this assay.
inactive

Answer briefly: the call reported for "Cc1c(Cl)cccc1NC(=O)CSc1ccc(-c2cccnc2)nn1" in this assay.
inactive

Answer briefly: the call reported for "O=c1n(Cc2cccc(C(F)(F)F)c2)c2ccccc2c2nc(-c3ccccc3)nn12" in this assay.
inactive

Answer briefly: the call reported for CCOC(=O)N1CCN(C(c2cccnc2)c2ccc3cccnc3c2O)CC1 (configuration not stated) in this assay.
active

Answer briefly: the call reported for COc1ccccc1N1CCN(C(CNC(=O)Oc2ccccc2)c2cccnc2)CC1 (configuration not stated) in this assay.
inactive

Answer briefly: the call reported for "CCOC(=O)c1ccc(CSc2nnc3cc(C)c4ccccc4n23)cc1" in this assay.
inactive

###

molecular target: Schistosoma mansoni thioredoxin glutathione reductase (TGR) (UniProt Q962Y6); assay: qHTS Assay for the Inhibitors of Schistosoma Mansoni Peroxiredoxins; conditions: purified TGR, DTNB reduction, TNB absorbance 405 nm; series mostly up to 114 µM; further: nearly all actives have a fitted effect of over 60% in size
Among all 360,000 compounds or so, about 11,000 (3.1%) were called active. Inconclusive results (about 4%) are left out. Calls follow the shape of the dose curve; as a rule, active = well fitted inhibition curve with a large enough effect; inconclusive = small, poorly fitted or top-dose-only effect; inactive = no such curve, though single readings can be large or run the other way. Shown is part of a subset that was picked to be rich in actives.
Select the matching outcome among yes for active, no for inactive

Some entries whose results are on file:
INSERT INTO results (chemsmiles, group) VALUES
  ('Cc1ccc(NC(=O)CN2c3ccccc3S(=O)(=O)c3ccccc32)cc1F', 'no'),
  ('CCCCn1c(SCC(=O)N2CCC(C(=O)OCC)CC2)nc2cc(S(N)(=O)=O)ccc21', 'no'),
  ('CCn1c2ccccc2c2cc(CN3CCN(Cc4cccc(Cl)c4)CC3)ccc21', 'no');

Answer briefly: the call reported for "CCCCn1c(SCc2ncc(-c3ccccc3)o2)nc2cc(S(N)(=O)=O)ccc21" in this assay.
yes

Answer briefly: the call reported for "Cc1ccc2nc(N3CCN(c4cccc(Cl)c4)CC3)c3nnnn3c2c1" in this assay.
no
